- Experimental system: Gal-1 (Homo sapiens)
- Construct: made in house; host or cells: E. coli BL21(DE3)
- Sequence (P09382 whole entry): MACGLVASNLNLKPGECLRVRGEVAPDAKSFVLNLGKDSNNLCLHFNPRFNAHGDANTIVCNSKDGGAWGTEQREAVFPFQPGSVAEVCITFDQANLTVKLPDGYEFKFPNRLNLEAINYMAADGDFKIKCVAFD
- Experiment: Pull-down assay with immobilized protein and LSM libraries
- Format: binding
- Reported conditions: H12 library; 1:1 binding assumed; read-out: Surface mapping KD (apparent)
- Experimental: Pull-down assays with immobilized test proteins and foldameric LSM libraries were carried out. Proteins were equilibrated with LSM probes, and equilibrium bound fractions (FB) were determined from the unbound fractions measured by HPLC-MS methods. Hits were corrected with background binding of the resin. […] MS data analysis. […] Using these processing setups, all raw data files were reprocessed together and analyzed. […]
Property: Kd (µM)
Reply with just the number (in µM).

// query # get_value(readout='Kd', item= `NCCCC[C@@H](CC(=O)N[C@H]1CCC[C@@H]1C(=O)N[C@H]1CCC[C@@H]1C(N)=O)NC(=O)[C@H]1CCC[C@@H]1NC(=O)[C@H]1CCC[C@@H]1NC(=O)C[C@H](CCCCN)NC(=O)[C@H]1CCC[C@@H]1NC(=O)[C@H]1CCC[C@@H]1N` )
// result 230

// query # get_value(readout='Kd', item= `CC(C)C[C@@H](CC(=O)N[C@H]1CCC[C@@H]1C(=O)N[C@H]1CCC[C@@H]1C(=O)N[C@@H](CCCNC(=N)N)CC(=O)N[C@H]1CCC[C@@H]1C(=O)N[C@H]1CCC[C@@H]1C(N)=O)NC(=O)[C@H]1CCC[C@@H]1NC(=O)[C@H]1CCC[C@@H]1N` )
// result 120

// query # get_value(readout='Kd', item= `CC(C)C[C@@H](CC(=O)N[C@H]1CCC[C@@H]1C(=O)N[C@H]1CCC[C@@H]1C(N)=O)NC(=O)[C@H]1CCC[C@@H]1NC(=O)[C@H]1CCC[C@@H]1NC(=O)C[C@H](Cc1c[nH]c2ccccc12)NC(=O)[C@H]1CCC[C@@H]1NC(=O)[C@H]1CCC[C@@H]1N` )
// result 200

Continuing:
// query # get_value(readout='Kd', item= `NC(=O)[C@H]1CCC[C@@H]1NC(=O)[C@H]1CCC[C@@H]1NC(=O)C[C@H](Cc1ccccc1)NC(=O)[C@H]1CCC[C@@H]1NC(=O)[C@H]1CCC[C@@H]1NC(=O)C[C@H](CCC(=O)O)NC(=O)[C@H]1CCC[C@@H]1NC(=O)[C@H]1CCC[C@@H]1N` )
// result 245

// query # get_value(readout='Kd', item= `CC(C)C[C@@H](CC(=O)N[C@H]1CCC[C@@H]1C(=O)N[C@H]1CCC[C@@H]1C(N)=O)NC(=O)[C@H]1CCC[C@@H]1NC(=O)[C@H]1CCC[C@@H]1NC(=O)C[C@H](CCC(=O)O)NC(=O)[C@H]1CCC[C@@H]1NC(=O)[C@H]1CCC[C@@H]1N` )
// result 244

// query # get_value(readout='Kd', item= `NC(=O)[C@H]1CCC[C@@H]1NC(=O)[C@H]1CCC[C@@H]1NC(=O)C[C@H](CCC(=O)O)NC(=O)[C@H]1CCC[C@@H]1NC(=O)[C@H]1CCC[C@@H]1NC(=O)C[C@H](Cc1c[nH]c2ccccc12)NC(=O)[C@H]1CCC[C@@H]1NC(=O)[C@H]1CCC[C@@H]1N` )
// result 256
